- System: Saccharomyces cerevisiae
- experimental protocol: protein stability index of tFT-peptide fusion (C-terminal peptide) (PSI (0-1 scale)); higher = more stable (slower turnover)
- reported conditions: genetic background: das1 deletion; temperature: 30 C
Quick rule for you: protein stability index at 0.7 or higher means criterion met, lower means criterion not met.

>>> print(df.to_string())
                           sequence_content     classification
 0   WQDFVPDEHISQ [VPS501 C-terminal 12 aa]      criterion met
 1     TPLGPKPDIRPL [ECM4 C-terminal 12 aa]      criterion met
 2     LLKQLKQGKISV [NOT3 C-terminal 12 aa]  criterion not met
 3     PPKSIFDTDDDD [RCN1 C-terminal 12 aa]      criterion met
 4  ILNCVGSAKISG [YGR291C C-terminal 12 aa]  criterion not met
 5    SNRILALGYILL [ATG32 C-terminal 12 aa]  criterion not met
 6     IKLNKKKVKLST [HHO1 C-terminal 12 aa]  criterion not met
 7     KVKRLMDFLEED [NSL1 C-terminal 12 aa]  criterion not met
 8     DDSSSTDTEERE [SSK2 C-terminal 12 aa]  criterion not met
 9     PKRGGLFGFGRL [JIP4 C-terminal 12 aa]      criterion met
10     VGLLTAIIMSIM [PST1 C-terminal 12 aa]  criterion not met

---

- System: Saccharomyces cerevisiae
- experimental protocol: protein stability index of tFT-peptide fusion (C-terminal peptide) (PSI (0-1 scale)); higher = more stable (slower turnover)
- reported conditions: genetic background: das1 deletion; temperature: 37 C
measured metric: protein stability index

    sequence_content  measurement
 0      LMVLISVMFSLG        0.292
 1      CFFLLLRVSLFP        0.257
 2      WGCTGGRGRLVC        0.741
 3      LSQPGWFKCCLS        0.768
 4      FFSFFLSFRLWF        0.456
 5      GPVRTEFWLYVW        0.655
 6      GVFFHFFFLFCF        0.447
 7      VFYRPFFVLFFV        0.413
 8      RHRGHVRLALLN        0.791
 9      GLLGRCPVVVFG        0.498
10      LCLLPVCLWDVG        0.501

---

- Tested on: Saccharomyces cerevisiae
- experimental protocol: protein stability index of tFT-peptide fusion (C-terminal peptide) (PSI (0-1 scale)); higher = more stable (slower turnover)
- reported conditions: genetic background: wild type; temperature: 37 C
measured metric: protein stability index

    sequence_content  measurement
 0      SWIKRYEITCIL        0.492
 1      HNQDKNVKYKIG        0.536
 2      GGSGGVSWRRVV        0.546
 3      LLVFFLAIPSLV        0.385
 4      IRVLACFLFAVS        0.247
 5      VLVVRVLLSDLV        0.338
 6      VCFFSSSCFLLV        0.567
 7      RLHCFSPILCPI        0.579
 8      PFFFIFVLPFVF        0.465
 9      MALAVRVVACGA        0.236
10      VFFCLFWFFCSF        0.492
11      IERGLMLTLCVH        0.171
12      VNILFCLFFLLV        0.477
13      YMVSLSFTLVRS        0.455
14      WQSFRDKLIKGN        0.375
15      FPRPLPVPLAVS        0.221
16      GGIRLRVRFFVI        0.236
17      LLAWLHTVQRVG        0.493
18      VHTAIFTSWRRL        0.685
19      MFWKFVFRGFWF        0.475
20      MRGPAWVCVLYS        0.535
21      CMYTILRHKINN        0.279
22      RVSIIYLGVLIS       0.0592
23      MSVLAFVCCLSG        0.358
24      GSVCVVCWELVV        0.479
25      NLSYFFFSVLFF        0.612
26      CAGLLSVSFWLF        0.552
27      VRGSPNVMWKSQ        0.508
28      CKYCKCVVLLWS        0.536
29      WLFASCVFFWSS        0.483
30      PRHLTPPPAPSA        0.674
31      VFVMVLCALFYF        0.319
32      DLFVFFVFHFFL        0.569
33      YIFLPIALVFFP        0.488
34      CSFCSGMILLLS        0.527
35      QERKILGRIKQA        0.161
36      GVVRKLCHWVVA        0.469
37      FVCLCGFLQVLS        0.526
38      CVLLVFLHLCLA        0.402
39      VKGYISLLLVLI        0.365
40      RKNIKISKAGIG        0.332
41      LSQPGWFKCCLS        0.463
42      PCVPRLLPLQLS        0.363
43      VPQMLVSVCLSN        0.392
44      RGYATTALHWVS        0.596
45      EWAILSLGVMCV        0.173
46      VRVLPFCWCIVR        0.259
47      DHSWGGLLICTC        0.513
48      RLPYSLTFFLLC       0.0714
49      CFCVSVHVWLLM        0.105
50      PLSNLCRVLTFI        0.526
51      RTWLHLVVPVWG        0.318
52      RYCVVDISAFCD        0.573
53      SIVDLFRLRSLS        0.519
54      INKRDARIHLLM        0.547
55      WDPEVVHRLWLN        0.155
56      HLYPFPSLHFAF        0.753
57      SFLVFLYFFMVF        0.446
58      PPSLFLLLKVFF        0.357
59      ILCVEFFVSVSV         0.23
60      NYVFALFYMVVA        0.345
61      IFPSRSLLAASA         0.48
62      DVWEHLHKQHNM         0.62
63      SYVVVFVIFCVG        0.301
64      VECPWFCLGVLA        0.416
65      LWFRCVRMQACR        0.492
66      FIMHRIFMALVI        0.359
67      LFTTYVFLVFFQ        0.437
68      IYFFVLRLRLCG        0.253
69      SLSSSFQFSSPS        0.736
70      AFFFCVVVLFSF        0.256
71      IIIRVTILCEQF        0.212
72      SFLLVWCLLPEI        0.451
73      WSNICFWCGVWS        0.662
74      RNCSFRRIQLAM        0.298
